TEST SYSTEM: UniProt:P30559
PROCEDURE DETAILS: Antagonist activity at human OTR expressed in HEK293 cell membranes assessed as inhibition of OT-induced IP1 accumulation by measuring IP1 level at 10 uM measured after 1 hr by fluorescence assay relative to control
Assay type: functional, cell-based
Parameters: scale not given: the % may be the effect or the level left
VALUE KIND: Activity (%)

O=S(=O)(Nc1ccnn1-c1ccccn1)c1ccc(C(F)(F)F)cc1    65.5
Cn1nccc1NS(=O)(=O)c1ccc(Cl)cc1    72.5
Cn1nccc1NS(=O)(=O)c1ccc(C(F)(F)F)cc1    90.4
O=S(=O)(Nc1ccnn1-c1ccccn1)c1ccc(Cl)cc1    78.1

---

TEST SYSTEM: Oxytocin receptor (Homo sapiens) (UniProt P30559)
Sequence (P30559 whole entry): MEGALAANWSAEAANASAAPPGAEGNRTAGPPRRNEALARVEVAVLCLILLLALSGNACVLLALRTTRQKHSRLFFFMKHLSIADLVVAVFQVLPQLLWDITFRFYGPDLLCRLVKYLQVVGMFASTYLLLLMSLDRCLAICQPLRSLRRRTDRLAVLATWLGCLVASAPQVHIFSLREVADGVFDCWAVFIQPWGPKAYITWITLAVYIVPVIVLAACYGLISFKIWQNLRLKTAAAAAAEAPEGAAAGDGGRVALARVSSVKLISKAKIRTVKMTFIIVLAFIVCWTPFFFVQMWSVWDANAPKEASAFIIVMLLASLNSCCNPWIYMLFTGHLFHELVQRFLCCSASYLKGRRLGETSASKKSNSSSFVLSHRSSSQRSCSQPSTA
PROCEDURE DETAILS: Antagonist activity at human OTR expressed in CHO cell membranes assessed as inhibition of OT-induced IP1 accumulation by measuring IP1 level at 10 uM measured after 1 hr by fluorescence assay relative to control
Type: functional, cell-based
Parameters: scale not given: the % may be the effect or the level left
VALUE KIND: Activity (%)

Cn1nccc1NS(=O)(=O)c1ccc(Cl)cc1    94.7
O=S(=O)(Nc1ccnn1-c1ccccn1)c1ccc(C(F)(F)F)cc1    82.1
O=S(=O)(Nc1ccnn1-c1ccccn1)c1ccc(Cl)cc1    71.1
Cn1nccc1NS(=O)(=O)c1ccc(C(F)(F)F)cc1    79.5

---

TEST SYSTEM: UniProtKB P37288
PROCEDURE DETAILS: Antagonist activity at human vasopressin 1a receptor expressed in CHO cell membranes assessed as inhibition of AVP-induced IP1 accumulation by measuring IP1 level at 10 uM measured after 1 hr by fluorescence assay relative to control
Assay type: functional, cell-based
Parameters: scale not given: the % may be the effect or the level left
Sequence (P37288 whole entry, looked up): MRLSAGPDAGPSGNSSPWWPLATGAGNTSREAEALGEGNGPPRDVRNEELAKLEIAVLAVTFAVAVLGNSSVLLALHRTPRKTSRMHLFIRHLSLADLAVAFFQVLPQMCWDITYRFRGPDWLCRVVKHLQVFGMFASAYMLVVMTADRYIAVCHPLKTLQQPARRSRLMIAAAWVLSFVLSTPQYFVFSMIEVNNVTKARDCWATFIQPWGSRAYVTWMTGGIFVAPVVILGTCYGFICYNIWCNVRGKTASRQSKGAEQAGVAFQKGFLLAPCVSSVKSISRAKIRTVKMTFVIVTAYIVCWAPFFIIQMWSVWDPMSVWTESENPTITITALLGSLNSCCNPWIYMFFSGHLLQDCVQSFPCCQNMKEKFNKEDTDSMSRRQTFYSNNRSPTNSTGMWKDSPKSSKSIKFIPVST
VALUE KIND: Activity (%)

(A) Cn1nccc1NS(=O)(=O)c1ccc(C(F)(F)F)cc1
(B) O=S(=O)(Nc1ccnn1-c1ccccn1)c1ccc(Cl)cc1
Looking only at measured Activity, which entry is lower, A or B ? Kindly state the label of the option you pick.
A

---

TEST SYSTEM: Vasopressin V1a receptor (Homo sapiens, UniProt P37288)
PROCEDURE DETAILS: Antagonist activity at human vasopressin 1a receptor expressed in HEK293 cell membranes assessed as inhibition of AVP-induced IP1 accumulation by measuring IP1 level at 100 nM measured after 1 hr by fluorescence assay relative to control
Assay type: functional, cell-based
Design: scale not given: the % may be the effect or the level left
VALUE KIND: Activity (%)

Cn1nccc1NS(=O)(=O)c1ccc(C(F)(F)F)cc1    84.7
O=S(=O)(Nc1ccnn1-c1ccccn1)c1ccc(C(F)(F)F)cc1    109
Cn1nccc1NS(=O)(=O)c1ccc(Cl)cc1    112
O=S(=O)(Nc1ccnn1-c1ccccn1)c1ccc(Cl)cc1    85.9

---

TEST SYSTEM: Vasopressin V1a receptor (Homo sapiens)
PROCEDURE DETAILS: Antagonist activity at human vasopressin 1a receptor expressed in HEK293 cell membranes assessed as inhibition of AVP-induced increase in Ca2+ flux by measuring intracellular calcium level at 10 uM preincubated for 5 mins followed by AVP addition measured after 5 mins for every 2 secs by Ca5 dye based FLIPR assay (reference value: 5.2 +/- 0.2%)
Format: functional
VALUE KIND: %max (%)

Cn1nccc1NS(=O)(=O)c1ccc(C(F)(F)F)cc1    5.1
Cn1nccc1NS(=O)(=O)c1ccc(Cl)cc1    5
O=S(=O)(Nc1ccnn1-c1ccccn1)c1ccc(C(F)(F)F)cc1    5.3
O=S(=O)(Nc1ccnn1-c1ccccn1)c1ccc(Cl)cc1    5.3

---

TEST SYSTEM: UniProt P37288
PROCEDURE DETAILS: Antagonist activity at human vasopressin 1a receptor expressed in HEK293 cell membranes assessed as inhibition of AVP-induced IP1 accumulation by measuring IP1 level at 10 uM measured after 1 hr by fluorescence assay relative to control
Type: functional, cell-based
Parameters: scale not given: the % may be the effect or the level left
VALUE KIND: Activity (%)

O=S(=O)(Nc1ccnn1-c1ccccn1)c1ccc(Cl)cc1    80.2
Cn1nccc1NS(=O)(=O)c1ccc(Cl)cc1    105
Cn1nccc1NS(=O)(=O)c1ccc(C(F)(F)F)cc1    77.9
O=S(=O)(Nc1ccnn1-c1ccccn1)c1ccc(C(F)(F)F)cc1    104

---

The reader will find Ki measurements below, all made with Vasopressin V1a receptor (Homo sapiens).

Cn1nccc1NS(=O)(=O)c1ccc(C(F)(F)F)cc1    > 10 µM

Query compound follows.
Ki lookup needed for O=S(=O)(Nc1ccnn1-c1ccccn1)c1ccc(C(F)(F)F)cc1 , thanks.
> 10 µM

---

TEST SYSTEM: Oxytocin receptor (Homo sapiens) (UniProt P30559)
PROCEDURE DETAILS: Antagonist activity at human OTR expressed in HEK293 cell membranes assessed as inhibition of OT-induced increase in Ca2+ flux by measuring intracellular calcium level at 10 uM preincubated for 5 mins followed by OT addition measured after 5 mins for every 2 secs by Ca5 dye based FLIPR assay (reference value: 4.5 +/- 0.1%)
Format: functional
VALUE KIND: %max (%)

Cn1nccc1NS(=O)(=O)c1ccc(Cl)cc1    4
Cn1nccc1NS(=O)(=O)c1ccc(C(F)(F)F)cc1    4.4
O=S(=O)(Nc1ccnn1-c1ccccn1)c1ccc(Cl)cc1    4.5
O=S(=O)(Nc1ccnn1-c1ccccn1)c1ccc(C(F)(F)F)cc1    4.4

---

TEST SYSTEM: Oxytocin receptor (Homo sapiens) (UniProt P30559)
PROCEDURE DETAILS: Antagonist activity at human OTR expressed in HEK293 cell membranes assessed as inhibition of OT-induced IP1 accumulation by measuring IP1 level at 100 nM measured after 1 hr by flourescence assay relative to control
Assay type: functional, cell-based
Design: scale not given: the % may be the effect or the level left
VALUE KIND: Activity (%)

O=S(=O)(Nc1ccnn1-c1ccccn1)c1ccc(Cl)cc1    89.5
O=S(=O)(Nc1ccnn1-c1ccccn1)c1ccc(C(F)(F)F)cc1    70.6
Cn1nccc1NS(=O)(=O)c1ccc(C(F)(F)F)cc1    98.3
Cn1nccc1NS(=O)(=O)c1ccc(Cl)cc1    82.5

---

TEST SYSTEM: Oxytocin receptor (Homo sapiens) (UniProt P30559)
PROCEDURE DETAILS: Antagonist activity at human OTR expressed in CHO cell membranes assessed as inhibition of OT-induced IP1 accumulation by measuring IP1 level at 100 nM measured after 1 hr by fluorescence assay relative to control
Format: functional, cell-based
Parameters: scale not given: the % may be the effect or the level left
VALUE KIND: Activity (%)

Cn1nccc1NS(=O)(=O)c1ccc(C(F)(F)F)cc1    85.5
O=S(=O)(Nc1ccnn1-c1ccccn1)c1ccc(C(F)(F)F)cc1    83.2
Cn1nccc1NS(=O)(=O)c1ccc(Cl)cc1    90.5
O=S(=O)(Nc1ccnn1-c1ccccn1)c1ccc(Cl)cc1    83.9
